B1: tRNA (parent)
chain: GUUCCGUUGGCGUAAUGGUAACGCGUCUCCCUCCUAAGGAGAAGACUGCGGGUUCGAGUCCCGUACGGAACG

Variants of: B1
assaySummary: yeast fitness, log relative to wild type (ln ratio); higher = fitter; tRNA-Arg(CCU), competitive growth, 37 C, 1 M NaCl
quantityMeasured: yeast fitness (ln)
Form: value (number only, do not type unit).

The variant identified as G1A G6U C27U C46U A70G C71U registered its yeast fitness (ln) at -0.262

The variant identified as U2G G6U A43C A69G A70G registered its yeast fitness (ln) at -0.237

The variant identified as G1A G6U A43C C66A A69G A70U C71U registered its yeast fitness (ln) at -0.344

The variant identified as G6A A43C A70G C71U registered its yeast fitness (ln) at -0.283

The variant identified as G6A C27U A43C C66U A70G registered its yeast fitness (ln) at -0.426

The variant identified as G1A U2C G6A C27U C46U C66U A70U registered its yeast fitness (ln) at -0.0971

The variant identified as U2G G6A C27U C66U A69G A70G registered its yeast fitness (ln) at -0.243

The variant identified as G1A U2C C66A A70U C71U registered its yeast fitness (ln) at -0.0883

The variant identified as G1A G6U A43C A69G A70G registered its yeast fitness (ln) at -0.54

The variant identified as G1A U2G A43C registered its yeast fitness (ln) at -0.0767

The variant identified as U2C G6A C27U A43C C46U C66U registered its yeast fitness (ln) at -0.0567

The variant identified as G1A U2G C27U C46U A69G A70G registered its yeast fitness (ln) at -0.21

The variant identified as G1A U2C C27U A43C C46U C66U A70U C71U registered its yeast fitness (ln) at -0.297

The variant identified as G1A U2C G6A A69G A70U C71U registered its yeast fitness (ln) at -0.281

The variant identified as A43C C46U C66U C71U registered its yeast fitness (ln) at -0.115

The variant identified as U2G G6A C27U C66U A69G registered its yeast fitness (ln) at -0.193

The variant identified as C27U C46U C66A A69G A70U registered its yeast fitness (ln) at -0.104

The variant identified as U2G G6U C46U C66U A69G A70U registered its yeast fitness (ln) at -0.264

The variant identified as U2G C27U A43C C66U A70U C71U registered its yeast fitness (ln) at -0.333

The variant identified as U2G G6U A43C C46U C66A A70G C71U registered its yeast fitness (ln) at -0.174

The variant identified as G6U A43C C46U C66U C71U registered its yeast fitness (ln) at -0.254

The variant identified as G1A U2C G6U A43C C66A A70G C71U registered its yeast fitness (ln) at -0.0204

The variant identified as G1A U2G A43C C46U A69G A70U registered its yeast fitness (ln) at -0.132

The variant identified as U2G G6U C27U C46U C66U A70U C71U registered its yeast fitness (ln) at -0.312

The variant identified as G1A U2G C27U C66A A70U C71U registered its yeast fitness (ln) at -0.243

The variant identified as G1A G6U A43C C46U C66U A69G C71U registered its yeast fitness (ln) at -0.43

The variant identified as U2G C27U A43C A69G A70U C71U registered its yeast fitness (ln) at -0.364

The variant identified as G1A U2C A43C C46U A70G C71U registered its yeast fitness (ln) at -0.00628

The variant identified as U2C C46U A69G A70G registered its yeast fitness (ln) at -0.016

The variant identified as C27U C46U C66A A70G registered its yeast fitness (ln) at -0.0605

The variant identified as U2G G6U A43C C46U C66A C71U registered its yeast fitness (ln) at -0.154

The variant identified as G1A U2C C27U C66A A70G C71U registered its yeast fitness (ln) at -0.221

The variant identified as G1A G6A C46U C66U A69G A70G C71U registered its yeast fitness (ln) at -0.0914

The variant identified as G1A A43C C46U A69G A70U C71U registered its yeast fitness (ln) at -0.33

The variant identified as G1A U2G G6A C27U C46U A70U registered its yeast fitness (ln) at -0.189

The variant identified as G1A G6A C46U A70U C71U registered its yeast fitness (ln) at -0.0983

The variant identified as U2G G6U C46U C66U A69G A70U C71U registered its yeast fitness (ln) at -0.39

The variant identified as U2G G6U C27U A43C C46U C66U C71U registered its yeast fitness (ln) at -0.356

The variant identified as U2C G6A A43C C46U C66U A70U C71U registered its yeast fitness (ln) at -0.199

The variant identified as G1A G6A C27U A43C C46U C71U registered its yeast fitness (ln) at -0.247

The variant identified as G1A U2C C27U A43C A70G C71U registered its yeast fitness (ln) at -0.0249

The variant identified as G1A U2G G6U C27U C66A A69G A70U C71U registered its yeast fitness (ln) at -0.404

The variant identified as G1A U2G G6A A69G A70U registered its yeast fitness (ln) at -0.153

The variant identified as U2G G6U C46U C66A A69G A70G C71U registered its yeast fitness (ln) at -0.164

The variant identified as G1A U2G G6A A43C C46U A69G C71U registered its yeast fitness (ln) at -0.206

The variant identified as U2G G6A C27U A43C A70G registered its yeast fitness (ln) at -0.186
